- Tested on: Mus musculus
- assay-comment: In vivo antinociceptive activity in mouse tail flick test following p.o. administration.
- Assay type: functional
- particulars: Mus musculus, Tail, po; read-out: ED50
Measured ED50 values are reported for all entries that follow.
Please respond with the number in µmol/kg and leave the unit unwritten.

The examples below pair each entry with its known result.
{"compound": "O=C(Cc1ccc([N+](=O)[O-])cc1)N1CCc2ccccc2C1CN1CCCC1 (racemic)", "ED50 [µmol/kg]": 0.409}
{"compound": "O=C(Cc1ccc(C(F)(F)F)cc1)N1CCCC[C@H]1CN1CCCC1", "ED50 [µmol/kg]": 3.29}
{"compound": "O=C(Cc1ccc(C(F)(F)F)cc1)N1CCc2ccccc2C1CN1CCCC1 (racemic)", "ED50 [µmol/kg]": 0.467}
{"compound": "CN(C)CC1c2ccccc2CCN1C(=O)Cc1ccc(Cl)c(Cl)c1.Cl (racemic)", "ED50 [µmol/kg]": 2.88}
{"compound": "O=C(Cc1ccc(C(F)(F)F)cc1)N1CCc2ccccc2C1CN1CCCCC1 (single isomer, unassigned; (-))", "ED50 [µmol/kg]": 3.84}
{"compound": "O=C(Cc1ccc(Cl)c(Cl)c1)N1CCc2sccc2C1CN1CCCCC1 (configuration not stated)", "ED50 [µmol/kg]": 2.75}
{"compound": "O=C(Cc1ccc(C(F)(F)F)cc1)N1CCc2ccccc2[C@H]1CN1CCCC1 (stereo in doubt; 30)", "ED50 [µmol/kg]": 0.25}
{"compound": "O=C(Cc1ccc(Cl)c(Cl)c1)N1CCCC[C@H]1CN1CCCC1", "ED50 [µmol/kg]": 2.49}

Continue with the compound presented below.
// query Could you please provide reported ED50 for C=CCN(C)CC1c2ccccc2CCN1C(=O)Cc1ccc(Cl)c(Cl)c1 (racemic) ? Thanks!
// result 6.88

###

- System: Mus musculus
- assay-comment: In vivo antinociceptive activity in mouse tail flick test following p.o. administration.
- Format: functional
- particulars: Mus musculus, Tail, po; read-out: ED50
value-kind: ED50 (µmol/kg)
Please respond with the number in µmol/kg and leave the unit unwritten.

{"molecule": "CN1CC[C@]23c4c5ccc(O)c4O[C@H]2[C@@H](O)C=C[C@H]3[C@H]1C5", "observed-value": 32.6}
{"molecule": "O=C(Cc1ccc(Cl)c(Cl)c1)N1CCc2sccc2C1CN1CCCC1 (stereo not drawn)", "observed-value": 0.945}

Continue with the molecule presented below.
// query Could you please provide reported ED50 for O=C(Cc1ccc(Cl)c(Cl)c1)N1CCc2ccsc2C1CN1CCCC1 (stereo not drawn) ? Thanks!
// result 1.59
